pIC50: −log10 of the molar value.
Reported pIC50 against IRAK4 (Homo sapiens (Human)), gathered from multiple publications, appears below.

# smiles.notation, pIC50
rows = [
    ("C[C@H](N)c1cccc(-c2cc(C(=O)NC(C)(C)CO)c3cnn(-c4cccc(CO)n4)c3c2)n1", "6.00 to 7.00"),
    ("Cn1cc(Nc2nc(N[C@H]3CC[C@H](N4CCOCC4)CC3)c3nc(C4CC4)sc3n2)cn1", "≥ 6.00"),
]

Now, please, on to the next molecule.
Incoming: Lab note: need pIC50 for `CC[C@H](O)C[C@H]1CCc2sc3ncnc(O[C@H]4CC[C@H](N(C)CC(=O)N5CCCC5)CC4)c3c21` on IRAK4 (Homo sapiens (Human)), anyone have it?
Outgoing: > 5.30

* * *

pIC50: −log10 of the molar value.
Reported pIC50 against IRAK4 (Homo sapiens (Human), UniProt Q9NWZ3), gathered from multiple publications, appears below.

# compound, target.system, result
data = [
    ("Cc1cccc(-n2ncc3ccc(-c4cn(C)c(C(C)N)n4)cc32)n1 (stereo not drawn)", "IRAK4 (Homo sapiens (Human), UniProt Q9NWZ3)", "6.00 to 7.00"),
    ("Cn1cc(-c2cccc(C(=O)Nc3nc(CCCCC(=O)N4CCC(N)CC4)cn3-c3ccccc3)c2)cn1", "IRAK4 (Homo sapiens (Human), UniProt Q9NWZ3)", "> 7.30"),
    ("CCC[C@H](N)c1cccc(-c2cc(CF)c3cnn(-c4cccc(CO)n4)c3c2)n1", "IRAK4 (Homo sapiens (Human), UniProt Q9NWZ3)", "> 7.00"),
    ("CCC[C@H](N)c1cccc(-c2cc(N3CCCC3CO)c3cnn(-c4cccc(CO)n4)c3c2)n1 (stereo partly drawn)", "IRAK4 (Homo sapiens (Human), UniProt Q9NWZ3)", "> 7.00"),
    ("Cn1cc(-n2ccc3nc(Nc4cc(C(=O)NCC(F)(F)F)cs4)nc(O[C@H]4CCOC4)c32)cn1", "IRAK4 (Homo sapiens (Human), UniProt Q9NWZ3)", "≥ 7.00"),
    ("Cn1cc(-c2cccc(-c3ncc(-c4cnn(C)c4)c(NCCCNS(C)(=O)=O)n3)c2)cn1", "IRAK4 (Homo sapiens (Human), UniProt Q9NWZ3)", "> 7.00"),
]

Incoming: Lab note: need pIC50 for `Cc1cccc(-n2ncc3ccc(-c4cc(C(N)=O)ccn4)cc32)n1` on IRAK4 (Homo sapiens (Human), UniProt Q9NWZ3), anyone have it?
Outgoing: < 5.00

Incoming: Lab note: need pIC50 for `O=C1Nc2nc3cc(CN4CCOCC4)ccc3n2Cc2cccc(c2)-c2ccc(=O)n(n2)Cc2cccc1c2` on IRAK4 (Homo sapiens (Human), UniProt Q9NWZ3), anyone have it?
Outgoing: > 7.00

* * *

pIC50: −log10 of the molar value.
Reported pIC50 against IRAK4 (Homo sapiens (Human), UniProt Q9NWZ3), gathered from multiple publications, appears below.

Worked cases, answers included:
# smiles.notation, target.system, recorded.metric, result
rows = [
    ("Cc1cc(Nc2nc(N[C@H]3C[C@H](N4CCCCC4)C3)c3c(ccn3-c3cnn(C)c3)n2)sn1", "IRAK4 (Homo sapiens (Human), UniProt Q9NWZ3)", "pIC50", "6.00 to 7.00"),
    ("COc1cncc(-n2ccc3nc(Nc4cc(C)ns4)nc(OC4CCOCC4)c32)c1", "IRAK4 (Homo sapiens (Human), UniProt Q9NWZ3)", "pIC50", "6.00 to 7.00"),
    ("C[C@@H](N)c1ccnc(-c2ccc3cnn(-c4cccc(CO)n4)c3c2)n1", "IRAK4 (Homo sapiens (Human), UniProt Q9NWZ3)", "pIC50", "5.00 to 6.00"),
]

Now, please, on to the next molecule.
Incoming: Lab note: need pIC50 for `Cn1cc(-c2cccc(-c3ncc(-c4cnn(C)c4)c(N[C@H]4CCC(=O)NC4)n3)c2)cn1` on IRAK4 (Homo sapiens (Human), UniProt Q9NWZ3), anyone have it?
Outgoing: 6.00 to 7.00

* * *

pIC50: −log10 of the molar value.
Reported pIC50 against IRAK4 (Homo sapiens (Human), UniProt Q9NWZ3), gathered from multiple publications, appears below.

Worked cases, answers included:
# smiles.notation, pIC50
rows = [
    ("CCC[C@H](N)c1cccc(-c2cc(OCCCOC)c3cnn(-c4cccc(CO)n4)c3c2)n1", "> 7.00"),
    ("Cn1cc(-c2cccc(-c3ncc(-c4cnn(C)c4)c(NCCCC(C)(C)O)n3)c2)cn1", "6.00 to 7.00"),
    ("CNC(=O)c1cc(Nc2nc(OCCOC)c3c(ccn3-c3cnn(C)c3)n2)cs1", "≥ 7.00"),
]

Incoming: Lab note: need pIC50 for `CCc1nc2c(N[C@H]3CC[C@H](N4CCC(F)(F)CC4)CC3)nc(Nc3cnn(C4CCOCC4)c3)nc2s1` on IRAK4 (Homo sapiens (Human), UniProt Q9NWZ3), anyone have it?
Outgoing: ≥ 6.00

* * *

Reported IC50 against IRAK4 (Homo sapiens (Human)), gathered from multiple publications, appears below.

Worked cases, answers included:
# smiles.notation, result
measured = [
    ("CCC[C@H](N)c1cccc(-c2cc(-c3ccn(C)n3)c3cnn(-c4cccc(CO)n4)c3c2)n1", "< 100 nM"),
    ("O=C(O)CCCCCc1cn(-c2ccccc2)c(NC(=O)c2cccc(-c3cn[nH]c3)c2)n1", "< 50 nM"),
]

Incoming: Lab note: need IC50 for `CN(C)[C@H]1CC[C@H](Oc2nc(Nc3ccc(N4CCNCC4)cc3)nc3sc4c(c23)CCC4)CC1` on IRAK4 (Homo sapiens (Human)), anyone have it?
Outgoing: ≤ 5000 nM

* * *

Reported pIC50 against IRAK4 (Homo sapiens (Human), UniProt Q9NWZ3), gathered from multiple publications, appears below.
pIC50: −log10 of the molar value.

Worked cases, answers included:
# compound, target.system, pIC50
measured = [
    ("CC1(C)OC(=O)c2ccc(Nc3ncc(-c4nc(-c5cccnc5)no4)c(N[C@H](CO)c4ccccc4)n3)cc21", "IRAK4 (Homo sapiens (Human), UniProt Q9NWZ3)", "6.00 to 6.60"),
    ("CNC(=O)c1csc(Nc2nc(O[C@H]3CCOC3)c3c(ccn3-c3ccoc3)n2)c1", "IRAK4 (Homo sapiens (Human), UniProt Q9NWZ3)", "≥ 7.00"),
    ("N#Cc1ccc2ncnc(N[C@H]3CC[C@H](N4CCC5(CC4)CC5)CC3)c2c1", "IRAK4 (Homo sapiens (Human), UniProt Q9NWZ3)", "≥ 5.30"),
]

Incoming: Lab note: need pIC50 for `CC(=O)N1CCc2sc3ncnc(O[C@H]4CC[C@H](N)CC4)c3c2C1` on IRAK4 (Homo sapiens (Human), UniProt Q9NWZ3), anyone have it?
Outgoing: 4.70 to 5.30

Incoming: Lab note: need pIC50 for `Cn1cc(-c2cccc(-c3ncc(-c4cnn(C)c4)c(N[C@H]4C[C@H](CNS(C)(=O)=O)C4)n3)c2)cn1` on IRAK4 (Homo sapiens (Human), UniProt Q9NWZ3), anyone have it?
Outgoing: 6.00 to 7.00

Incoming: Lab note: need pIC50 for CC1CNCCC1c1cn2c(cnc3[nH]cc(C4CCOCC4)c32)n1 (stereo not drawn) on IRAK4 (Homo sapiens (Human), UniProt Q9NWZ3), anyone have it?
Outgoing: > 7.00

* * *

pIC50: −log10 of the molar value.
Reported pIC50 against IRAK4 (Homo sapiens (Human), UniProt Q9NWZ3), gathered from multiple publications, appears below.

Worked cases, answers included:
# compound, result
measured = [
    ("CN(C)C(=O)c1ccc2sc3ncnc(N[C@H]4CC[C@H](N(C)C)CC4)c3c2c1", "5.00 to 6.00"),
    ("CC(C)Nc1cc(-c2cnc3cc(C#N)cnn23)ncc1C(=O)NCC(F)C1CC(C)OC(C)C1 (single isomer, unassigned)", 8.52),
    ("Cc1nnc(-c2cnc(-c3cccc(-c4cnn(C)c4)c3)nc2NCCNS(C)(=O)=O)s1", "> 7.00"),
]

Incoming: Could you share which pIC50 value was measured for O[C@H]1CC[C@H](Nc2nc(Nc3cnn(C4CCCNC4)c3)nc3ccsc23)CC1 (stereo partly drawn) ?
Outgoing: ≥ 7.00

Incoming: Could you share which pIC50 value was measured for `CN(C)[C@H]1CC[C@H](Oc2ncnc3sc4c(c23)CN(C(N)=O)CC4)CC1` ?
Outgoing: > 5.30

Incoming: Could you share which pIC50 value was measured for `CN1CCC(c2ccc(Nc3nc(N[C@H]4CC[C@H](N5CCOCC5)CC4)c4c5c(sc4n3)CCC5)cc2)CC1` ?
Outgoing: ≥ 5.30

* * *

Reported pIC50 against IRAK4 (Homo sapiens (Human)), gathered from multiple publications, appears below.
pIC50: −log10 of the molar value.

Worked cases, answers included:
# smiles.notation, result
data = [
    ("Cc1ccn(-c2cc(-c3cccc([C@H](C)N)n3)cc3c2cnn3-c2cccc(CO)n2)n1", "> 7.00"),
    ("Cn1cc(-c2cccc(-c3ncc(-c4cnn(C)c4)c(NC[C@@H]4CCCC[C@H]4O)n3)c2)cn1", "> 7.00"),
    ("CC(F)(F)Cn1cc(Nc2cc(-c3cnn4cc(C#N)cnc34)ncc2C(=O)NC[C@@H](F)C(C)(C)O)cn1", 8.70),
    ("Cn1cc(-c2cccc(-c3ncc(-c4cnn(C)c4)c(NC45CCC(N)(CC4)CC5)n3)c2)cn1", "> 7.00"),
]

Incoming: Lab note: need pIC50 for `O[C@H]1CC[C@H](Nc2nc(Nc3cnn(-c4cccnc4)c3)nc3ccsc23)CC1` on IRAK4 (Homo sapiens (Human)), anyone have it?
Outgoing: ≥ 7.00

Incoming: Lab note: need pIC50 for `CC(C)(O)[C@H](F)CNC(=O)c1cnc(-c2cnc3cc(C#N)cnn23)cc1NC1CCC1` on IRAK4 (Homo sapiens (Human)), anyone have it?
Outgoing: 8.70
